# Test system: T-47D breast
# test-description: NCI tumour cell line growth inhibition, 48 h
Listed here: items and their measured TGI.
measurement-type: TGI

molecule_smiles=COc1ccc2c(c1)C(=O)c1c-2n(CCCN(C)C)c(=O)c2cc([N+](=O)[O-])ccc12 target_under_test="T-47D breast" measurement_type=TGI observed="21.6 µM"
molecule_smiles=C(=N\NC1=NCCN1)/c1ccc2ccccc2c1 target_under_test="T-47D breast" measurement_type=TGI observed="> 100 µM"
molecule_smiles=CCOC(=O)c1nc2cc(Cl)ccc2[nH]c1=O target_under_test="T-47D breast" measurement_type=TGI observed="> 100 µM"
molecule_smiles=CCCN(CCC)C(=O)c1c(N2CCN(C)CC2)c2cccnc2n2c(C)cnc12 target_under_test="T-47D breast" measurement_type=TGI observed="> 100 µM"
molecule_smiles=O=C(O)c1nn(-c2ccccc2)nc1-c1nn(-c2ccccc2)nc1C(=O)O target_under_test="T-47D breast" measurement_type=TGI observed="> 100 µM"
molecule_smiles=COc1ccc2c(c1)/c(=C/C#N)c1c3ccccc3[n+](C)n21 target_under_test="T-47D breast" measurement_type=TGI observed="10.6 µM"
